// values below are IC50; system is UniProt:P00746
Sequence (P00746 26-253): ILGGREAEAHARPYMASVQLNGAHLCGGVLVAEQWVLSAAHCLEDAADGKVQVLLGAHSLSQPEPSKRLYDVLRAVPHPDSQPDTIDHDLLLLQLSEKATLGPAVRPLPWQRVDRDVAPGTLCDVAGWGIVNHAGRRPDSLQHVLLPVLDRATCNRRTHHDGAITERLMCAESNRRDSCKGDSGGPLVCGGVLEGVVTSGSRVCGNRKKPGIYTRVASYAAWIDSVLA

Past entries and their recorded results:
{"COMPOUND": "CN(C)CC[C@H](N)c1cccc(Cl)c1F [358f]", "TARGET_DESC": "UniProt:P00746", "IC50": "1000 to 10000 nM"}
{"COMPOUND": "COC(=O)c1ccc2c(c1)c(C(C)=O)nn2CC(=O)N(CC(=O)NCc1cccc(Cl)c1F)C1CC1 [227a]", "TARGET_DESC": "UniProt:P00746", "IC50": "< 1000 nM"}
{"COMPOUND": "CC(C)N(CC(=O)NCc1cccc(Cl)c1F)C(=O)Cn1cc(C(N)=O)c2c(N)ncnc21 [65a]", "TARGET_DESC": "UniProt:P00746", "IC50": "1000 to 10000 nM"}
{"COMPOUND": "CC(=O)c1nn(CC(=O)N(CC(=O)NCc2cccc(Cl)c2F)[C@H]2C[C@H](O)C2)c2ccc(Nc3cncnc3)cc12 [182a]", "TARGET_DESC": "UniProt:P00746", "IC50": "< 1000 nM"}
{"COMPOUND": "CO[C@H]1C[C@H](N(CC(=O)NCc2cccc(Cl)c2F)C(=O)Cn2nc(C(N)=O)c3ccccc32)C1 [170b]", "TARGET_DESC": "UniProt:P00746", "IC50": "< 1000 nM"}
{"COMPOUND": "NC(=O)c1nn(CC(=O)N(CC(=O)NCc2cccc(Cl)c2F)C2CC2)c2ncc(N)cc12 [326b]", "TARGET_DESC": "UniProt:P00746", "IC50": "1000 to 10000 nM"}

Batch: IC50 for all items listed.
1. CC(=O)c1cn(CC(=O)N(CC(=O)NCc2cccc(Cl)c2F)[C@H]2C[C@H](O)C2)c2ccc(Nc3cncnc3)cc12 [114a]
2. Nc1ncnc2c1cnn2CC(=O)N(CC(=O)NCc1cccc(Cl)c1F)C1CC1 [68a]
3. C[C@@H](O)[C@H](NC(=O)Cn1nc(C(N)=O)c2ccccc21)C(=O)NCc1cccc(Cl)c1F [34d]
4. NC(=O)c1nn(CC(=O)N(CC(=O)NCc2cccc(Cl)c2F)[C@H]2C[C@@H](CO)C2)c2ccccc12 [210b]
5. N#Cc1cn(CC(=O)N(CC(=O)NCc2cccc(Cl)c2F)C2CC2)c2ccc(C(=O)NCc3ccccc3)cc12 [200i]
6. CC(C)(C)CC(=O)Nc1ccc2c(C(N)=O)nn(CC(=O)N(CC(=O)NCc3cccc(Cl)c3F)C3CC3)c2c1 [322b]
7. NC(=O)c1nn(CC(=O)N(CC(=O)NCc2cccc(Cl)c2F)[C@H]2C[C@H](N)C2)c2ccc(N)cc12 [351b]

< 1000 nM
1000 to 10000 nM
> 10000 nM
< 1000 nM
1000 to 10000 nM
< 1000 nM
< 1000 nM

Each compound below has a recorded value; state its IC50.
1. CC(C)(C)OC(=O)N[C@H]1C[C@@H](N(CC(=O)NCc2cccc(Cl)c2F)C(=O)Cn2nc(C(N)=O)c3ccccc32)C1 [152b]
2. CC(O)c1nn(CC(=O)N(CC(=O)NCc2cccc(Cl)c2F)C2CC2)c2ccc(NC(=O)N3CCCC(F)(F)C3)cc12 (stereo not shown) [289a]
3. NC(=O)c1nn(CC(=O)N(CC(=O)NCc2cccc(Cl)c2F)C[C@H]2C[C@H](O)C2)c2ccccc12 [172b]

1: < 1000 nM; 2: 1000 to 10000 nM; 3: < 1000 nM

The origin of these recorded values is patent EP3925956B1.
